Can you tell me pIC50 for the items I'm about to list?
target.desc: MERTK (UniProt Q12866)
Sequence (Q12866 whole entry): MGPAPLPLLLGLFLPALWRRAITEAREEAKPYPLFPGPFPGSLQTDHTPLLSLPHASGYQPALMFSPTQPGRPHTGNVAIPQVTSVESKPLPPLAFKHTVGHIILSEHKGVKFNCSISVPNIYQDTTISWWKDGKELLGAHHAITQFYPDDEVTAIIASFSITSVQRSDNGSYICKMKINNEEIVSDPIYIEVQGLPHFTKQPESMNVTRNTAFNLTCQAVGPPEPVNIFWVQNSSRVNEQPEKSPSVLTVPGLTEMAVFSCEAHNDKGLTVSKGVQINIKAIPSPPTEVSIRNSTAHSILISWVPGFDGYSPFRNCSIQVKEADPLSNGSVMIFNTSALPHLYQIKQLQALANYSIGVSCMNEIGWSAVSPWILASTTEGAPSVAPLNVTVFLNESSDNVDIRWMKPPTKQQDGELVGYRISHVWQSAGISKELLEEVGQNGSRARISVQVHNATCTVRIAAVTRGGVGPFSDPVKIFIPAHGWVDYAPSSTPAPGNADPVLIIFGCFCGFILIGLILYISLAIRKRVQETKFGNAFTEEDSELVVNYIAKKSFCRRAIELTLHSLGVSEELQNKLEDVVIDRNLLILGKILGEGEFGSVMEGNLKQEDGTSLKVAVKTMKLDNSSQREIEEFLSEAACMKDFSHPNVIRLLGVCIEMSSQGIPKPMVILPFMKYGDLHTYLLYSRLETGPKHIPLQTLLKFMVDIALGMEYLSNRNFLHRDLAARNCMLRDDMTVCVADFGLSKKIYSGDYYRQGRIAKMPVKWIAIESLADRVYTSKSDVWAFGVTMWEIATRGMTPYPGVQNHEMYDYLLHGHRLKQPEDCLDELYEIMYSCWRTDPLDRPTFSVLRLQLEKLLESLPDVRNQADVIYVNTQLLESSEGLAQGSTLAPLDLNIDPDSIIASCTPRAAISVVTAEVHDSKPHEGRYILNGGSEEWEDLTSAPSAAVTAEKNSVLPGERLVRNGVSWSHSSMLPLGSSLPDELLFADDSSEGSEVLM
assay.text: pIC50, kinobeads binding competition
reported.conditions: cell material: Lysate mix

Input C#CCNC(=O)c1cc(Nc2cc(C3CC3)[nH]n2)nc(N2CCN(Cc3ccc(S(=O)(=O)F)cc3)CC2)n1 . Output pIC50: 4.84

Form field pIC50, entry CCNC(=O)c1cc(Nc2cc(C3CC3)[nH]n2)nc(N2CCN(Cc3ccc(S(=O)(=O)F)cc3)CC2)n1 : 4.94

Reported pIC50 for O=C(NCCNC(=O)c1cc(Nc2cc(C3CC3)[nH]n2)nc(N2CCN(Cc3ccc(S(=O)(=O)F)cc3)CC2)n1)OC1CC/C=C/CCC1 (stereo unspecified) was < 4.52

The measured pIC50 associated with C#CCNC(=O)c1cc(Nc2cc(C)[nH]n2)nc(N2CCN(Cc3ccc(S(=O)(=O)F)cc3)CC2)n1 reads < 4.52

Lab note: measured pIC50 of Cc1cc(Nc2cc(C(=O)NCCNC(=O)OC3CC/C=C/CCC3)nc(N3CCN(Cc4ccc(S(=O)(=O)F)cc4)CC3)n2)n[nH]1 (stereo unspecified) was < 4.52

# molecule CCNC(=O)c1cc(Nc2cc(C)[nH]n2)nc(N2CCN(Cc3ccc(S(=O)(=O)F)cc3)CC2)n1 ; its pIC50 = < 4.52

* * *

target.desc: UniProt Q13523
Sequence (Q13523 whole entry, looked up): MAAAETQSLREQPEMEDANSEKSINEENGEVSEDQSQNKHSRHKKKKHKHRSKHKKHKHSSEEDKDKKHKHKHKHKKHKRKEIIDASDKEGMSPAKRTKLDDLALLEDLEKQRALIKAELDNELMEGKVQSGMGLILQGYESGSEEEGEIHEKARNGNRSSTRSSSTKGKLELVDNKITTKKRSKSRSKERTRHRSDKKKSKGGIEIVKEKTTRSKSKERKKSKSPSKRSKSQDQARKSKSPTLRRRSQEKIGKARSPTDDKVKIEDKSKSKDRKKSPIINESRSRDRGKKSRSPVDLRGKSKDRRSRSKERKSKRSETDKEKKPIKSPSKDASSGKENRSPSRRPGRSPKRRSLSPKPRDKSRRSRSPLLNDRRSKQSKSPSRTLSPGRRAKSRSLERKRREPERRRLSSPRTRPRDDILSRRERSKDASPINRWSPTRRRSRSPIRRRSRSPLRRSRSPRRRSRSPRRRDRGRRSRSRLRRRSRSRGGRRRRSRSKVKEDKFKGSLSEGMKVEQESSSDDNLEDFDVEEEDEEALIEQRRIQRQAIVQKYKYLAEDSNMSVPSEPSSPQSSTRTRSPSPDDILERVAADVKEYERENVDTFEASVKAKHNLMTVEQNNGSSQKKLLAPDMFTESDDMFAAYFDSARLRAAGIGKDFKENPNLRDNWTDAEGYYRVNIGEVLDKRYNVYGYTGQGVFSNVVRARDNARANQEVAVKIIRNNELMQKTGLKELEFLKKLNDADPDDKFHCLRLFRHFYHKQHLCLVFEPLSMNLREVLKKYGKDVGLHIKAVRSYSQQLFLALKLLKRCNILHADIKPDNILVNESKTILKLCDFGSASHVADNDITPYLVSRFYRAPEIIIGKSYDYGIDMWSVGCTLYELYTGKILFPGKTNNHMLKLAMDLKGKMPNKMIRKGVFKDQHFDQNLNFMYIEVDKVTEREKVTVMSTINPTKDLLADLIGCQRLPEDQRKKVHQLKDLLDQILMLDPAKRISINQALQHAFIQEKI
assay.text: pIC50, kinobeads binding competition
reported.conditions: cell material: Lysate mix
Exercise: state measured pIC50 for each of the compounds provided.

compound CCNC(=O)c1cc(Nc2cc(C3CC3)[nH]n2)nc(N2CCN(Cc3ccc(S(=O)(=O)F)cc3)CC2)n1 , pIC50 observed: 5.12

# pIC50 (compound: Cc1cc(Nc2cc(C(=O)NCCNC(=O)OC3CC/C=C/CCC3)nc(N3CCN(Cc4ccc(S(=O)(=O)F)cc4)CC3)n2)n[nH]1 (stereo not drawn) ) is < 4.52

O=C(NCCNC(=O)c1cc(Nc2cc(C3CC3)[nH]n2)nc(N2CCN(Cc3ccc(S(=O)(=O)F)cc3)CC2)n1)OC1CC/C=C/CCC1 (stereo not drawn) has a reported pIC50 of < 4.52

* * *

target.desc: IRAK4 (UniProt Q9NWZ3)
Sequence (Q9NWZ3 whole entry): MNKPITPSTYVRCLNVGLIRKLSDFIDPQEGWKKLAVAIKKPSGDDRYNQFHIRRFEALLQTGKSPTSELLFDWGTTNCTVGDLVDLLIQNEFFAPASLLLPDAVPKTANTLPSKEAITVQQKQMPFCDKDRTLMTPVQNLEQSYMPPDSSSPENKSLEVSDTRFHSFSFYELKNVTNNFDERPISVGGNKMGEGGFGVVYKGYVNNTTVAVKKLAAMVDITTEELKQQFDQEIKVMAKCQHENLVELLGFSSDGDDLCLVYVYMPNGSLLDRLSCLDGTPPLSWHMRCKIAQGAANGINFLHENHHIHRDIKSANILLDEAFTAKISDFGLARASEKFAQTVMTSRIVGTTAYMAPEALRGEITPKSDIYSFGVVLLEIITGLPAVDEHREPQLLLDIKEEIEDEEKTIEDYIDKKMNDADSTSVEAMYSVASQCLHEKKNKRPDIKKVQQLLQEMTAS
assay.text: pIC50, kinobeads binding competition
reported.conditions: cell material: Lysate mix
assay.endpoint: pIC50

Noted for CCNC(=O)c1cc(Nc2cc(C3CC3)[nH]n2)nc(N2CCN(Cc3ccc(S(=O)(=O)F)cc3)CC2)n1 : its pIC50 reads 5.19

pIC50 for O=C(NCCNC(=O)c1cc(Nc2cc(C3CC3)[nH]n2)nc(N2CCN(Cc3ccc(S(=O)(=O)F)cc3)CC2)n1)OC1CC/C=C/CCC1 (centres undefined) is < 4.52

Notebook: CCNC(=O)c1cc(Nc2cc(C)[nH]n2)nc(N2CCN(Cc3ccc(S(=O)(=O)F)cc3)CC2)n1 , pIC50 read as < 4.52

The measured pIC50 associated with C#CCNC(=O)c1cc(Nc2cc(C)[nH]n2)nc(N2CCN(Cc3ccc(S(=O)(=O)F)cc3)CC2)n1 reads < 4.52

* * *

target.desc: DAPK3 (UniProt O43293)
Sequence (O43293 whole entry, looked up): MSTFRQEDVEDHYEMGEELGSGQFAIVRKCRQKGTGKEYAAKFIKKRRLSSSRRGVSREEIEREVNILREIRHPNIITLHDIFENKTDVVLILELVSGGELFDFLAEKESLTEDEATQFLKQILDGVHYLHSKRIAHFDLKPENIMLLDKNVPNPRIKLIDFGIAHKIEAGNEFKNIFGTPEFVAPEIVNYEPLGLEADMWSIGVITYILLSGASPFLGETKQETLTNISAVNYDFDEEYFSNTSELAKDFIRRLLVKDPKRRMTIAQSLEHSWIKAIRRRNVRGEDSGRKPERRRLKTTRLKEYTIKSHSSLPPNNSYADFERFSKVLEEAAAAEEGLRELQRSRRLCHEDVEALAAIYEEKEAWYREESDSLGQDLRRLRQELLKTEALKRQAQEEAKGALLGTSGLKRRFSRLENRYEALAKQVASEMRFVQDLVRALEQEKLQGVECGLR
assay.text: pIC50, kinobeads binding competition
reported.conditions: cell material: Lysate mix
assay.endpoint: pIC50

Item: C#CCNC(=O)c1cc(Nc2cc(C3CC3)[nH]n2)nc(N2CCN(Cc3ccc(S(=O)(=O)F)cc3)CC2)n1 | pIC50: < 4.52

The molecule listed as O=C(NCCNC(=O)c1cc(Nc2cc(C3CC3)[nH]n2)nc(N2CCN(Cc3ccc(S(=O)(=O)F)cc3)CC2)n1)OC1CC/C=C/CCC1 (stereo not drawn) shows pIC50 equal to < 4.52

Record Cc1cc(Nc2cc(C(=O)NCCNC(=O)OC3CC/C=C/CCC3)nc(N3CCN(Cc4ccc(S(=O)(=O)F)cc4)CC3)n2)n[nH]1 (stereo not drawn) . Reported pIC50: < 4.52
